# Study System: Human DNA topoisomerase 1 (Top1) (Homo sapiens, UniProt P11387 1-765)
# Sequence (P11387 whole entry): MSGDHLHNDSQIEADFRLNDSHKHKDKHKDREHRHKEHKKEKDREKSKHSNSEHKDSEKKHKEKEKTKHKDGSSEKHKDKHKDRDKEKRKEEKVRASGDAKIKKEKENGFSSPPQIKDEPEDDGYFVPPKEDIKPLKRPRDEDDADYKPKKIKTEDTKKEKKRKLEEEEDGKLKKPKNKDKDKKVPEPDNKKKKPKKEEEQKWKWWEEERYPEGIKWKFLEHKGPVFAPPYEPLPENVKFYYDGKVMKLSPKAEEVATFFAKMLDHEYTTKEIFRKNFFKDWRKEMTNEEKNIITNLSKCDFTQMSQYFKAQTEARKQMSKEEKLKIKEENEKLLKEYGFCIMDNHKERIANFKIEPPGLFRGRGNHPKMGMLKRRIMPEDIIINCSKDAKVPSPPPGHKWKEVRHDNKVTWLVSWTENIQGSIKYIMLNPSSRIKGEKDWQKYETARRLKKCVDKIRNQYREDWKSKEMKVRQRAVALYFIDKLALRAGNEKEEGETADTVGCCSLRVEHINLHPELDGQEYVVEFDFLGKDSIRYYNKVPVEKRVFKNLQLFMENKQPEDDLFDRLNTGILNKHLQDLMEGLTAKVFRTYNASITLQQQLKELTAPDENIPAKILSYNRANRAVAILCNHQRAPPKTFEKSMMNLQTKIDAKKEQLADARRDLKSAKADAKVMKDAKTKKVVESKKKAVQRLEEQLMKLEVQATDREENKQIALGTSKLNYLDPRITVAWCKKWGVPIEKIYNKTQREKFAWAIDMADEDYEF
# Experiment Summary: EMSA
Measurement Label: binding result

Sample records with binding result:
non-G4 dsDNA (dsDNA) DNA 1: CCTGAAGCAGACAGCTAGTGAATTCAAAAAAAAAAAAAAAAAAAAATACTTGCGTATAACTGTTCCATAGT DNA 2: ACTATGGAACAGTTATACGCAAGTATTTTTTTTTTTTTTTTTTTTTGAATTCACTAGCTGTCTGCTTCAGG : no binding
B4-dx2 G4 in dsDNA (mixed) DNA 1: CCTGAAGCAGACAGCTAGTGAATTCGGATCTGAGAATCAGATGTGGGTGGGTGGGTACTTGCGTATAACTGTTCCATAGT DNA 2: ACTATGGAACAGTTATACGCAAGTATTTTTTTTTTTTTTTTTTTTTGAATTCACTAGCTGTCTGCTTCAGG : binds
T4B1 G4 in dsDNA (mixed) DNA 1: CCTGAAGCAGACAGCTAGTGAATTCGTTTTGGTGGGTGGGTGGGTACTTGCGTATAACTGTTCCATAGT DNA 2: ACTATGGAACAGTTATACGCAAGTATTTTTTTTTTTTTTTTTTTTTGAATTCACTAGCTGTCTGCTTCAGG : binds
Tel G4 in dsDNA (mixed) DNA 1: CCTGAAGCAGACAGCTAGTGAATTCGGGTTAGGGTTAGGGTTAGGGTACTTGCGTATAACTGTTCCATAGT DNA 2: ACTATGGAACAGTTATACGCAAGTATTTTTTTTTTTTTTTTTTTTTGAATTCACTAGCTGTCTGCTTCAGG : binds
C-Kit G4 in dsDNA (mixed) DNA 1: CCTGAAGCAGACAGCTAGTGAATTCGGGCGGGCGCGAGGGAGGGTACTTGCGTATAACTGTTCCATAGT DNA 2: ACTATGGAACAGTTATACGCAAGTATTTTTTTTTTTTTTTTTTTTTGAATTCACTAGCTGTCTGCTTCAGG : binds

What value of binding result has been recorded for this entry: T1B1 G4 in dsDNA (mixed) DNA 1: CCTGAAGCAGACAGCTAGTGAATTCGTGGTGGGTGGGTGGGTACTTGCGTATAACTGTTCCATAGT DNA 2: ACTATGGAACAGTTATACGCAAGTATTTTTTTTTTTTTTTTTTTTTGAATTCACTAGCTGTCTGCTTCAGG
binds

What value of binding result has been recorded for this entry: MYOG in dsDNA (no G4 formed) (mixed) DNA 1: CCTGAAGCAGACAGCTAGTGAATTCGGGTGGGCTGGGAGGTACTTGCGTATAACTGTTCCATAGT DNA 2: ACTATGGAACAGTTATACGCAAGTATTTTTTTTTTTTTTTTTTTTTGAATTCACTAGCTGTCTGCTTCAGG
no binding

What value of binding result has been recorded for this entry: BCL-2 G4 in dsDNA (mixed) DNA 1: CCTGAAGCAGACAGCTAGTGAATTCGGGCGCGGGAGGAAGGGGGCGGGTACTTGCGTATAACTGTTCCATAGT DNA 2: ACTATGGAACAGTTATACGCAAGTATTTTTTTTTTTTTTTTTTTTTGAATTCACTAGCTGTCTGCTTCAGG
binds
